Biological target: hGLP-1R (Homo sapiens, UniProt P43220)
Sequence (P43220 24-463): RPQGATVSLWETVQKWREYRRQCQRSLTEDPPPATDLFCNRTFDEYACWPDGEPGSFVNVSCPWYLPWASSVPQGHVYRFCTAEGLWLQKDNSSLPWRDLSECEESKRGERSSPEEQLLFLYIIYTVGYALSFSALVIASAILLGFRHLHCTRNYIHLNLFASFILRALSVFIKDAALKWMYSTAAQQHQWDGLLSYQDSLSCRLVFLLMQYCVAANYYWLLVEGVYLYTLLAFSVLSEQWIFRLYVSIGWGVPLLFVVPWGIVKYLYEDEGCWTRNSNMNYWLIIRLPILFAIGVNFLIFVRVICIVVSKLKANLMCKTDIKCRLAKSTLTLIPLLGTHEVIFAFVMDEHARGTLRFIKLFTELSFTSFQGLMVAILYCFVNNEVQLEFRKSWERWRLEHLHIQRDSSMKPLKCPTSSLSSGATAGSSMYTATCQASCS
Assay: cell-based or functional assay
Entries and their cAMP Rel EC50, nM (1% HSA)
Report the figure in nM without appending any unit label.

Recorded cAMP Rel EC50, nM (1% HSA), per entry:
>  <binder>
YXQGTFTSDFSXXLDKKAQXAFIEYLLEXGPSSGXPPPSGS (acylated; synthetic construct; SITE 2: note = 2-Aminoisobutyric Acid; SITE 12: note = L-ornithine; SITE 13: note = alpha-methyl-leucine; SITE 17: note = Lysine is chemically modified through conjugation of the epsilon-amino group of the Lysine side chain with (2-[2-(2-Amino-ethoxy)-ethoxy]-acetyl)-(gamma-Glu)) [Example 239]

>  <output.unit>
nM

>  <cAMP Rel EC50, nM (1% HSA)>
419

$$$$
>  <binder>
YXQGTFTSDXSXXLDKKAQXAFIEXLIEGGPSSGAPPPSGSEE (Aib, 4Pal, Me4Pal, Orn, alpha-methyl-Leu, lipidated Lys, amide; synthetic construct; SITE 2: note = 2-Aminoisobutyric Acid; SITE 10: note = 3-(4-Pyridyl)-L-alanine; SITE 12: note = L-ornithine; SITE 13: note = alpha-methyl-leucine; SITE 17: note = Lysine is chemically modified through conjugation of the epsilon-amino group of the Lysine side chain with (2-[2-(2-) [Example 955]

>  <output.unit>
nM

>  <cAMP Rel EC50, nM (1% HSA)>
1380

$$$$
>  <binder>
YXQGTFTSDFSQXLDKKAQXAFIEYLLAGGPSSGAPPPEGS (synthetic construct; SITE 2: note = 2-Aminoisobutyric Acid; SITE 13: note = alpha-methyl-leucine; SITE 17: note = Lysine is chemically modified through conjugation of the epsilon-amino group of the Lysine side chain with (2-[2-(2-Amino-ethoxy)-ethoxy]-acetyl)-(gamma-Glu)-CO-(CH2) 16-CO2H; SITE 20: n) [Example 772]

>  <output.unit>
nM

>  <cAMP Rel EC50, nM (1% HSA)>
206

$$$$

Identify measured cAMP Rel EC50, nM (1% HSA) corresponding to YXQGTFTSDXSQXLDKKAQXAFIEYLIAGGPSSGAPPPSGSEE (non-natural residues; Lys acylated Glu-γGlu-C18 diacid; C-terminal amide; synthetic construct; SITE 2: note = 2-Aminoisobutyric Acid; SITE 10: note = 3-(4-Pyridyl)-L-alanine; SITE 13: note = alpha-methyl-leucine; SITE 17: note = Lysine is chemically modified through conjugation of the epsilon-amino group of the Lysine side chain with (Glu)-(gamma-Glu)-CO-(CH2)16-CO2H; SIT) [Example 1030] 385

Give the reported cAMP Rel EC50, nM (1% HSA) for this binder. YXQGTFTSDFSQXLDKKAQXAFIEYLLEXGESSGAPPPSGE (synthetic construct; SITE 2: note = 2-Aminoisobutyric Acid; SITE 13: note = alpha-methyl-leucine; SITE 17: note = Lysine is chemically modified through conjugation of the epsilon-amino group of the Lysine side chain with (2-[2-(2-Amino-ethoxy)-ethoxy]-acetyl)-(gamma-Glu)-CO-(CH2) 16-CO2H; SITE 20: n) [Example 789] 379

Annotate the binder YXQGTFTSDFSXXLDKKAQXAFIEYLLEXGPSSGAPPPSGT (synthetic construct; SITE 2: note = 2-Aminoisobutyric Acid; SITE 12: note = L-ornithine; SITE 13: note = alpha-methyl-leucine; SITE 17: note = Lysine is chemically modified through conjugation of the epsilon-amino group of the Lysine side chain with (2-[2-(2-Amino-ethoxy)-ethoxy]-acetyl)2-(gamma-Glu)) [Example 165] with its measured cAMP Rel EC50, nM (1% HSA). 808
